- Tested on: CD2F1 mice, L1210 leukemia ip, survival T/C
- Method Notes: NCI In Vivo Anticancer Drug Screen. Data for tumor model L1210 Leukemia (intraperitoneal) in CD2F1 (CDF1) mice
- Applied Conditions: endpoint: mean survival time; dose: 100.0 mg/kg/injection; schedule: Q01DX009 (ip); vehicle: other; higher = longer survival
Inconclusive results and toxic doses are left out.
Assay Endpoint: T/C

The following compounds have reported results that may help.
{"columns": ["Compound", "T/C"],
 "data": [
  ["CC(CCC(=O)O)(c1cc(Br)c(O)c(Br)c1)c1cc(Br)c(O)c(Br)c1", "96 % of control"],
  ["C/C(CCc1ccccc1)=N/O", "100 % of control"],
  ["CCOC1(C)OC2OC(COC(c3ccccc3)(c3ccccc3)c3ccccc3)C(O)C(O)C2O1 (stereo unspecified)", "98 % of control"],
  ["c1ccc2c(c1)OB(C1CCCC1)O2", "93 % of control"],
  ["C=CCN(N=O)C(=O)OCC", "113 % of control"]
]}

### Prompt State its T/C on CD2F1 mice, L1210 leukemia ip, survival T/C: NC(=O)Oc1cc(OC(N)=O)cc(N(CCCl)CCCl)c1
### Response 116 % of control

###

- Tested on: CD2F1 mice, L1210 leukemia ip, survival T/C
- Method Notes: NCI In Vivo Anticancer Drug Screen. Data for tumor model L1210 Leukemia (intraperitoneal) in CD2F1 (CDF1) mice
- Applied Conditions: endpoint: mean survival time; dose: 400.0 mg/kg/injection; schedule: Q04DX003 (ip); vehicle: saline with Tween-80; higher = longer survival
Toxic doses and inconclusive results are not listed.
Assay Endpoint: T/C

# example entries with known answers
{"columns": ["Compound", "Target Or System", "T/C"],
 "data": [
  ["OC(c1ccccc1)(c1ccccc1)c1ccccc1 (tested in a mixture with another compound)", "CD2F1 mice, L1210 leukemia ip, survival T/C", "97 % of control"],
  ["Cc1cc(O)c(Br)c(C)c1Br", "CD2F1 mice, L1210 leukemia ip, survival T/C", "101 % of control"],
  ["O=C(/C=C/c1ccccc1)SCc1ccccc1", "CD2F1 mice, L1210 leukemia ip, survival T/C", "94 % of control"],
  ["O=C(OC(c1ccccc1)(C(F)(F)F)C(F)(F)F)c1ccccc1Sc1ccccc1", "CD2F1 mice, L1210 leukemia ip, survival T/C", "93 % of control"],
  ["Cc1c(C)c([N+](=O)[O-])c(Br)c(C)c1[N+](=O)[O-]", "CD2F1 mice, L1210 leukemia ip, survival T/C", "87 % of control"]
]}

### Prompt // returns reported T/C for input Clc1ccccc1CCCBr
### Response 88 % of control

### Prompt Quick check: T/C of NN(C(=O)c1ccccc1)c1ccccc1 ?
### Response 100 % of control

### Prompt # input compound: Cc1c(O)c(=O)n(-c2ccccc2)n1C ; wanted: its T/C
### Response 96 % of control

### Prompt Entry CC(NC(=O)CNC(=O)OCc1ccccc1)C(=O)O (stereo unspecified) has what T/C?
### Response 93 % of control

### Prompt Can you share its T/C? I mean this compound: O=C(N/N=C/c1ccc2c(c1)CCC2)c1ccccc1[N+](=O)[O-]
### Response 96 % of control

### Prompt // query T/C value for entry Cn1c(N)n[nH]c1=S
### Response 88 % of control

### Prompt Reported T/C, compound CC1(C)CC(=O)C2=C(C1)OC1(O)CC(C)(C)CC(=O)C1C2c1ccccc1Cl (stereo unspecified) : ____
### Response 96 % of control

###

- System: CD2F1 mice, L1210 leukemia ip, survival T/C
- Method Notes: NCI In Vivo Anticancer Drug Screen. Data for tumor model L1210 Leukemia (intraperitoneal) in CD2F1 (CDF1) mice
- Applied Conditions: endpoint: mean survival time; dose: 200.0 mg/kg/injection; schedule: Q01DX009 (ip); vehicle: saline with Tween-80; higher = longer survival
Inconclusive results and toxic doses are left out.
# maps each entry to its T/C

### Prompt Lab note: need T/C with CD2F1 mice, L1210 leukemia ip, survival T/C for entry OC1CCC(O)C2C3CCC(C3)C12 (configuration not stated) , please look it up.
### Response 100 % of control

### Prompt Lab note: need T/C with CD2F1 mice, L1210 leukemia ip, survival T/C for entry CC(=O)CC(C)(C)N , please look it up.
### Response 92 % of control

### Prompt // lookup T/C | system=CD2F1 mice, L1210 leukemia ip, survival T/C | key= CCCCCCCC(=O)Nc1ccccc1CC
### Response 100 % of control

### Prompt Query for CD2F1 mice, L1210 leukemia ip, survival T/C: what T/C does the record show for CCCCCCCCCCCCCCCC(=O)NCCNC(=O)CCCCCCCCCCCCCCC ?
### Response 94 % of control

### Prompt Any idea what T/C came out for Cc1cc(C)c(C(=O)c2ccc(-c3ccccc3)cc2)c(C)c1 on CD2F1 mice, L1210 leukemia ip, survival T/C?
### Response 98 % of control

###

- Tested on: CD2F1 mice, L1210 leukemia ip, survival T/C
- Method Notes: NCI In Vivo Anticancer Drug Screen. Data for tumor model L1210 Leukemia (intraperitoneal) in CD2F1 (CDF1) mice
- Applied Conditions: endpoint: mean survival time; dose: 25.0 mg/kg/injection; schedule: Q01DX009 (ip); vehicle: saline with Tween-80
- Description: The antitumor activity of compounds was measured in mice bearing transplantable tumors. Survival or tumor size were measured and the results are expressed as the measurement made in the treated group (T) divided by the measurement made in the vehicle treated control group (C). The tumor model used in this assay is L1210 Leukemia (intraperitoneal) in CD2F1 (CDF1) mice
Inconclusive results and toxic doses are left out. The calls were made as follows: active = survival T/C of 150% or more; inactive = T/C below 125% in these data.
Hi there, use one of these labels in your reply, thanks! active, inactive

Look over these answered cases.
{"columns": ["Compound", "Target Or System", "Qualitative Label"],
 "data": [
  ["CP1(=S)CCC(O)(c2ccccc2)CC1 (stereo unspecified)", "CD2F1 mice, L1210 leukemia ip, survival T/C", "inactive"],
  ["CCCN(CCC)c1c([N+](=O)[O-])cc(C(N)=O)cc1[N+](=O)[O-]", "CD2F1 mice, L1210 leukemia ip, survival T/C", "inactive"],
  ["Clc1nc[nH]c1Cl", "CD2F1 mice, L1210 leukemia ip, survival T/C", "inactive"],
  ["O=C1NC(=O)C(=C/C=C/c2ccccc2)C(=O)N1", "CD2F1 mice, L1210 leukemia ip, survival T/C", "inactive"],
  ["CCCCCCCCCCOC(=O)COc1ccc(C(C)(C)C)cc1", "CD2F1 mice, L1210 leukemia ip, survival T/C", "inactive"]
]}

### Prompt Test call, this compound: CCOC(=O)Oc1c(OC)cc(C(=O)O[C@@H]2C[C@@H]3CN4CCc5c([nH]c6cc(OC)ccc56)[C@H]4C[C@@H]3[C@H](C(=O)OC)[C@H]2OC)cc1OC
### Response inactive

### Prompt Hey, what did the test say about COc1ccc(OC)c(CCN)c1 ?
### Response inactive

### Prompt Hello, I am checking results. What call was entered for CC1=CC(C(=O)O)P(C)(=O)C1 (stereo unspecified) ?
### Response inactive

### Prompt // param item: CC(=O)n1cc(F)c(=O)[nH]c1=O ; yields the recorded call
### Response active

### Prompt I'd appreciate the recorded outcome for CC(Cc1ccccc1)NC(C#N)c1ccccc1 (stereo unspecified) from this test.
### Response inactive

### Prompt Each compound tested received a call. Report the one for CC(C)OC(=O)Oc1cccs1 .
### Response inactive

###

- Tested on: CD2F1 mice, L1210 leukemia ip, survival T/C
- Method Notes: NCI In Vivo Anticancer Drug Screen. Data for tumor model L1210 Leukemia (intraperitoneal) in CD2F1 (CDF1) mice
- Applied Conditions: endpoint: mean survival time; dose: 400.0 mg/kg/injection; schedule: Q01DX001 (ip); vehicle: saline with Tween-80; higher = longer survival
Inconclusive results and toxic doses are left out.
T/C reference

# count of solved cases: 2
{"columns": ["Compound", "Assay Endpoint", "Test Result"],
 "data": [
  ["Nc1cncc([N+](=O)[O-])c1N", "T/C", "101 % of control"],
  ["O=C1NC(=NC2CCCCC2)C2(CCN(CC3COc4ccccc4O3)CC2)N1c1ccccc1 (stereo not drawn)", "T/C", "101 % of control"]
]}

### Prompt Look up T/C for this compound: Oc1ccc(CCNCc2cc3c(cc2Br)OCO3)cc1
### Response 104 % of control

###

// reported T/C for each item listed
- Tested on: CD2F1 mice, L1210 leukemia ip, survival T/C
- Method Notes: NCI In Vivo Anticancer Drug Screen. Data for tumor model L1210 Leukemia (intraperitoneal) in CD2F1 (CDF1) mice
- Applied Conditions: endpoint: mean survival time; dose: 400.0 mg/kg/injection; schedule: Q04DX003 (ip); vehicle: saline with Tween-80; higher = longer survival
- Method: The antitumor activity of compounds was measured in mice bearing transplantable tumors. Survival or tumor size were measured and the results are expressed as the measurement made in the treated group (T) divided by the measurement made in the vehicle treated control group (C). The tumor model used in this assay is L1210 Leukemia (intraperitoneal) in CD2F1 (CDF1) mice
Inconclusive results and toxic doses are left out.

Sample records with T/C:
{"columns": ["Compound", "Assay Endpoint", "Test Result"],
 "data": [
  ["Clc1ccccc1-c1nc2ccccc2s1", "T/C", "92 % of control"],
  ["CCOC(=O)CCC(NC(=O)c1ccccc1NC)C(=O)OCC (centres undefined)", "T/C", "103 % of control"],
  ["CCOC(=O)CC(=O)c1c(C)cc(C)c(Br)c1C", "T/C", "92 % of control"],
  ["CC(O)(c1ccc(Cl)cc1)c1ccc(Cl)cc1", "T/C", "90 % of control"],
  ["COC(=O)/C(=C\\c1ccccc1Cl)C(C)=O", "T/C", "102 % of control"],
  ["C(=N\\N=C\\c1ccccc1)/c1ccccc1", "T/C", "96 % of control"],
  ["COC(=O)c1ccc(-n2cc(C(=O)OC)c([N+]#N)c2[O-])cc1", "T/C", "93 % of control"],
  ["Cc1cccc(Cl)c1NC(=O)CS", "T/C", "98 % of control"]
]}

### Prompt # T/C lookup, item Cc1cc(C(C)(C)C)c(Oc2ccc([N+](=O)[O-])cc2S(=O)(=O)O)c(C(C)(C)C)c1
### Response 92 % of control

### Prompt # query: T/C of entry Cc1ccc(S(=O)(=O)OCC(OS(=O)(=O)c2ccc(C)cc2)C2OC3OC(C)(C)OC3C2OS(=O)(=O)c2ccc(C)cc2)cc1 (centres undefined)
### Response 90 % of control

### Prompt Fill in the blank: the reported T/C of O=[N+]([O-])c1ccc(COc2ccc(Cl)cc2)cc1 is ____.
### Response 94 % of control

### Prompt Using the record for O=C1c2ccccc2C(C2c3ccccc3C(=O)c3ccccc32)c2ccccc21 , report its T/C.
### Response 100 % of control

### Prompt Please report the recorded T/C for CCOC(=O)NC1CCC1NC(=O)OCC (centres undefined) .
### Response 107 % of control

### Prompt What does the record list as T/C for CC(=O)N/C(=C/c1ccccc1)C(=O)NC(C)(C)C ?
### Response 89 % of control

### Prompt Any idea what its T/C is? The compound is Cc1ccc([N+](=O)[O-])cc1C#N
### Response 113 % of control

### Prompt Which T/C value belongs to O=C(COc1ccc(Cl)cc1Cl)Nc1ccc(F)cc1 ?
### Response 89 % of control
